# Assay procedure: NCI Yeast Anticancer Drug Screen. Data for the cln2 rad14 strain (AID 165);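 also: 0% = growth equal to vehicle treated cultures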
# Conditions used: S. cerevisiae cln2 rad14 strain, at 50.0 µM, active compounds read high
About 79,000 compounds went through this panel and 15% of them were active in at least one assay; those are over-represented in the sample as a whole.
Measured parameter: growth inhibition (%)
# value in %; strip the unit string

Exercise: Give growth inhibition for C=CC[N+]12CN3CN(CN(C3)C1)C2
Solution: 7.55

Exercise: Give growth inhibition for ClCCN(CCCl)c1ccc(C2N(Cc3ccc(N(CCCl)CCCl)cc3Cl)CCCN2Cc2ccc(N(CCCl)CCCl)cc2Cl)cc1
Solution: 22.1

Exercise: Give growth inhibition for CC(Cc1ccccc1)[N+](=O)[O-] (stereo not drawn)
Solution: -19.6

Exercise: Give growth inhibition for COC1=CC2=CCC3C(CCC4(C)C3CCC4(C)OC(C)=O)C2(C)CC1 (stereo not drawn)
Solution: 30.6

Exercise: Give growth inhibition for Nc1ccc2cc(Br)ccc2c1
Solution: 31.1

Exercise: Give growth inhibition for FC1(F)C(Cl)=[C]([Hg][C]2=C(Cl)C(F)(F)C(F)(F)C(F)(F)C2(F)F)C(F)(F)C(F)(F)C1(F)F
Solution: 19.9

Exercise: Give growth inhibition for CC[C@](O)(C(=O)O)c1cc2n(c(=O)c1CO)Cc1cc3ccccc3nc1-2
Solution: 87.8

Exercise: Give growth inhibition for Oc1ccc([Te]CCNCC[Te]c2ccc(O)cc2)cc1
Solution: 48.3

Exercise: Give growth inhibition for CCC[CH2][Sn][Cl]
Solution: 97.7

Exercise: Give growth inhibition for CCCCCCCCCC[Se]C#N
Solution: 97.3

Exercise: Give growth inhibition for C[n+]1c(/C=C/c2ccc(O)c(O)c2)[se]c2ccccc21
Solution: 66.9

Exercise: Give growth inhibition for O=C(N/N=C/c1ccc(F)cc1)c1ccc(N(CCCl)CCCl)cc1
Solution: 25.2

Exercise: Give growth inhibition for [Cl][Hg].c1ccc([As]c2ccc(-c3ccccc3)cc2)cc1 (stereo not drawn)
Solution: 99

Exercise: Give growth inhibition for COC(=O)C(C)(C)[n+]1c(C)cc(C)cc1C
Solution: -7.1

Exercise: Give growth inhibition for O=[N+]([O-])c1cc([As](Br)c2ccc(O)c([N+](=O)[O-])c2)ccc1O
Solution: 99.5

Exercise: Give growth inhibition for COc1cc(C=Nc2ccc(-c3csc(COc4ccccc4)n3)cc2)ccc1N(CCCl)CCCl
Solution: 84.2

Exercise: Give growth inhibition for COC1=C(C)C(=O)c2c(c(COC(N)=O)c3n2CC2C3N2C)C1=O (stereo not drawn)
Solution: 87.1

Exercise: Give growth inhibition for CC(C)C1(NC(=O)C2C=C3c4cccc5[nH]cc(c45)CC3N(C)C2)OC2(O)C3CCCN3C(=O)C(Cc3ccccc3)N2C1=O (stereo not drawn) (tested in a mixture with another compound)
Solution: 96.8

Exercise: Give growth inhibition for N#Cc1ccccc1C(Cl)(Cl)Cl
Solution: 27.1

Exercise: Give growth inhibition for ClCCN(CCCl)CCN1c2ccccc2Sc2ccc3ccccc3c21
Solution: 70.9

Exercise: Give growth inhibition for CSC(=Nc1ccccc1)N(c1ccccc1)c1nc(=[N+](C)C)ss1
Solution: 93.4

Exercise: Give growth inhibition for CC(O[Si](c1ccccc1)(c1ccccc1)C(C)(C)C)[C@H](NC(=O)OC(C)(C)C)C(=O)O (stereo partly drawn)
Solution: 89.6

Exercise: Give growth inhibition for Cc1ccccc1NC(=O)CBr
Solution: 95.5

Exercise: Give growth inhibition for C1CC[CH]([Sn]([CH]2CCCCC2)[CH]2CCCCC2)CC1.C1CC[CH]([Sn]([CH]2CCCCC2)[CH]2CCCCC2)CC1
Solution: -30.2

Exercise: Give growth inhibition for O=C1CN2C(Cl)(Cl)C2(c2ccccc2)c2cc(Cl)ccc2N1CC1CC1 (stereo not drawn)
Solution: 88.3

Exercise: Give growth inhibition for C[C@]12CCC(=O)C=C1CC[C@@H]1C2CC[C@@]2(C)C1CC[C@@H]2OC(=O)C12OC1CCC2=O (stereo partly drawn)
Solution: 65.1

Exercise: Give growth inhibition for CCNC(=O)OCC1C2=C(C(=O)C(C)=C(N)C2=O)N2CC3C(N3C)C12OC (stereo not drawn)
Solution: 44.7

Exercise: Give growth inhibition for N#Cc1cc(N(CCCl)CCCl)c([N+](=O)[O-])cc1[N+](=O)[O-]
Solution: 79.5

Measured values drawn from PubChem BioAssay (NCI) for this set.
